# measurement target: mTOR (Homo sapiens, UniProt P42345)
# Construct: recombinant human mTOR fragment (amino acid 1360-2549, molecular weight=163.9 kDa); GST-tag (N)
# Sequence (P42345 1360-2549): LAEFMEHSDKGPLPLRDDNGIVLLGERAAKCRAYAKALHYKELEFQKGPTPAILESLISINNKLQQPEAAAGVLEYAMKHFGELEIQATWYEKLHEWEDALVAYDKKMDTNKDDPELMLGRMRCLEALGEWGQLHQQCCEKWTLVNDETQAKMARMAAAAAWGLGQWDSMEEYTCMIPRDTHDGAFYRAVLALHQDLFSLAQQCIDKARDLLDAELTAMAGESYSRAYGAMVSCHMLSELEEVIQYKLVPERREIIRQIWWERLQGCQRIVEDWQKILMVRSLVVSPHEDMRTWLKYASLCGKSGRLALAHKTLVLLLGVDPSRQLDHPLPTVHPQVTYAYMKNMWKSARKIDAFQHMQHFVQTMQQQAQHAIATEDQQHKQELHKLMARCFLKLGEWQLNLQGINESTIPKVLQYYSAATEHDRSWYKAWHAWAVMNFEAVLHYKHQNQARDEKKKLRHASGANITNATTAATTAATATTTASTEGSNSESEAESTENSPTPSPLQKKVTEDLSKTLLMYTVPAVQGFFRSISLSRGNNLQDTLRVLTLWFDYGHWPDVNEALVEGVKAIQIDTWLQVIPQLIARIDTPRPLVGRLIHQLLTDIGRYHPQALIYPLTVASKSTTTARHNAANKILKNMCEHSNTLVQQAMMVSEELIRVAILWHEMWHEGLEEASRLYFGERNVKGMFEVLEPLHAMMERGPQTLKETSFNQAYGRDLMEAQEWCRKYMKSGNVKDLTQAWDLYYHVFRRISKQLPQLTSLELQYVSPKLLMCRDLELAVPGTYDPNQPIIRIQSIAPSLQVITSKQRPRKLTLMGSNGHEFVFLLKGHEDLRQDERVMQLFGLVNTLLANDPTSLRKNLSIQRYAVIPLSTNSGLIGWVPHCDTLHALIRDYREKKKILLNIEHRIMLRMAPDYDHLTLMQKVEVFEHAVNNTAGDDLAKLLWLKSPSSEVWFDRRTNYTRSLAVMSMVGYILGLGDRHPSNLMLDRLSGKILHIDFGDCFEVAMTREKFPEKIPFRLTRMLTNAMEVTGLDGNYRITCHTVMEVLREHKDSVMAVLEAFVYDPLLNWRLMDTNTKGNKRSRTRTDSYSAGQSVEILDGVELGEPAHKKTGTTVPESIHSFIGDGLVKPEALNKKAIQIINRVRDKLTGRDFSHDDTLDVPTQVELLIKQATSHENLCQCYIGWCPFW
# assay info: In vitro enzyme activity assay, mTOR kinase (32P-ATP, P81 filter-binding)
# recorded conditions: 4EBPI substrate, 10 μM ATP; read-out: mTOR enzyme activity_IC50
pIC50: −log10 of the molar value.
endpoint: pIC50

Lookup: Item COc1ncc(-c2ccc3ncc(OCCN4CCCC4)c(=O)n3c2)cc1NS(=O)(=O)c1ccc(F)cc1F [Compound 42] : provide pIC50
Found: < 6.70

Lookup: Input COc1ncc(-c2ccc3ncc(OCCN4CCCC4)c(=O)n3c2)cc1NS(=O)(=O)c1ccc(F)cc1Cl [Compound 27] , output reported pIC50.
Found: 6.70 to 7.30

Lookup: Determine its reported pIC50: COc1ncc(-c2ccc3ncc(OCCN4CCOCC4)c(=O)n3c2)cc1NS(=O)(=O)c1ccc(C)cc1C [Compound 7]
Found: < 6.70

Lookup: Report pIC50, nothing else, for this compound: COc1ncc(-c2ccc3ncc(OCCn4cccn4)c(=O)n3c2)cc1NS(=O)(=O)c1ccc(F)cc1F [Compound 37]
Found: 6.70 to 7.30

Lookup: Answer with the recorded pIC50 for the compound listed here: COc1ncc(-c2ccc3ncc(OCCN(C)C)c(=O)n3c2)cc1NS(=O)(=O)c1sc(C)nc1C [Compound 35]
Found: 6.70 to 7.30

Lookup: Supply recorded pIC50 for COc1ncc(-c2ccc3ncc(OCCN4CCOCC4)c(=O)n3c2)cc1NS(=O)(=O)c1sc(C)nc1C [Compound 15] here.
Found: 6.70 to 7.30

----------
# System: MCF-7 cells
# assay info: In vitro cell activity assay (MCF-7, insulin stimulation, ELISA-One)
# Assay type: cell-based
# recorded conditions: Homo sapiens, MCF7, compound 2 hours in serum-free media, then 10 μg/ml insulin 30 min
pIC50: −log10 of the molar value.
For each of the compounds below, state its pIC50.

Lookup: Specify measured pIC50 for COc1ncc(-c2ccc3ncc(OCCN4CCC(O)CC4)c(=O)n3c2)cc1NS(=O)(=O)c1ccc(F)cc1Cl [Compound 79] .
Found: 6.60 to 7.00

Lookup: # return recorded pIC50 for entry COc1ncc(-c2ccc3ncc(OCCN4CCOCC4)c(=O)n3c2)cc1NS(=O)(=O)c1ccc(Cl)s1 [Compound 14]
Found: ≥ 7.30

Lookup: Note down pIC50 recorded for COc1ncc(-c2ccc3ncc(OCCN4CCCC4)c(=O)n3c2)cc1NS(=O)(=O)c1ccc(F)cc1F [Compound 42]
Found: 6.60 to 7.00

Lookup: Annotate the compound COc1ncc(-c2ccc3ncc(OCCN4CCNCC4)c(=O)n3c2)cc1NS(=O)(=O)c1ccc(F)cc1Cl [Compound 75] with its measured pIC50.
Found: < 6.60

Lookup: Please report pIC50 for the following compound: COc1ncc(-c2ccc3ncc(OCCN4CCOCC4=O)c(=O)n3c2)cc1NS(=O)(=O)c1ccc(F)cc1Cl [Compound 65]
Found: ≥ 7.30

Lookup: Give a short answer stating reported pIC50 for COc1ncc(-c2ccc3ncc(OCCn4cccn4)c(=O)n3c2)cc1NS(=O)(=O)c1ccc(F)cc1F [Compound 37] .
Found: 6.60 to 7.00

Lookup: Identify the reported pIC50 for the following entry. COc1ncc(-c2ccc3ncc(OCCN4CCC(F)(F)CC4)c(=O)n3c2)cc1NS(=O)(=O)c1sc(C)nc1C [Compound 1]
Found: ≥ 7.30

Sourced from patent US9856256B2
